// reported CC50 per item
# System: non-HIV-1 infected MT-4 cells
# procedure_details: Cytotoxicity: inhibition of multiplication of non-HIV-1 infected MT-4 cells (MTT method)
# Format: cell-based
# measurement_setup: 6 days culture, 50% inhibition of multiplication

[
  {
    "substance": "DMT--O--GGGCGGGGC--OH [Example 70]",
    "CC50": "60.0 µg/mL"
  },
  {
    "substance": "DMT--O--TGCGAGG--OH [Example 32]",
    "CC50": "> 100.0 µg/mL"
  }
]

Looking up DMT--O--CTGGGAGG--OH [Example 37] , I found its CC50 recorded as > 100.0 µg/mL

Looking up DMT--O--TGGGCGCAG--OH [Example 73] , I found its CC50 recorded as > 100.0 µg/mL

====

# System: non-HIV-1 infected MT-4 cells
# procedure_details: Cytotoxicity: inhibition of multiplication of non-HIV-1 infected MT-4 cells (MTT method)
# Assay type: cell-based
# measurement_setup: 6 days culture, 50% inhibition of multiplication
property: CC50

[
  {
    "substance": "DMT--O--TAGGAGG--OH [Example 71]",
    "CC50": "37.0 µg/mL"
  }
]

DMT--O--CGGGAGG--OH [Example 29] on non-HIV-1 infected MT-4 cells gives CC50 = > 100.0 µg/mL

DMT-O-TGGGAG-OH [Example 25] on non-HIV-1 infected MT-4 cells gives CC50 = > 100.0 µg/mL

DMT--O--TGGGAGG--OH [Example 30] on non-HIV-1 infected MT-4 cells gives CC50 = > 100.0 µg/mL

DMT--O--mCGGGAGG--OH [Example 34] on non-HIV-1 infected MT-4 cells gives CC50 = > 100.0 µg/mL

DMT--O--AATGGGAGG--OH [Example 81] on non-HIV-1 infected MT-4 cells gives CC50 = > 100.0 µg/mL

====

# System: non-HIV-1 infected MT-4 cells
# procedure_details: Cytotoxicity: inhibition of multiplication of non-HIV-1 infected MT-4 cells (MTT method)
# Format: cell-based
# measurement_setup: 6 days culture, 50% inhibition of multiplication
property: CC50 (µg/mL)
Use µg/mL as the unit, but write only the number.

Solved cases (2 shown):
[
  {
    "substance": "DMT--O--TTGGGAGG--OH [Example 36]",
    "unit_string": "µg/mL",
    "result_value": 100.0
  },
  {
    "substance": "DMT--O--TTGGAGG--OH [Example 31]",
    "unit_string": "µg/mL",
    "result_value": 90.0
  }
]

Please examine the following record next.
DMT--O--TCGGAGG--OH [Example 75] on non-HIV-1 infected MT-4 cells gives CC50 = 40.0
